molecular target: serine acetyltransferase; test: Serine acetyltransferase enzyme activity test with and without L-cysteine (inhibitor constant Ki, specific activity); type: biochemical, E. coli; details: Table 1b; carboxyterminal deletions; inhibitor L-cysteine
PROPERTY NAME: pKi
Convention used: pKi is expressed as -log10 of the molar concentration.

Give pKi for the following molecule: cysE-Del256: carboxyterminal deletion of 17 amino acids, terminal Met256 (protein, UniProt P0A9D4 1-256, looked up, fragment) MSCEELEIVWNNIKAEARTLADCEPMLASFYHATLLKHENLGSALSYMLANKLSSPIMPAIAIREVVEEAYAADPEMIASAACDIQAVRTRDPAVDKYSTPLLYLKGFHALQAYRIGHWLWNQGRRALAIFLQNQVSVTFQVDIHPAAKIGRGIMLDHATGIVVGETAVIENDVSILQSVTLGGTGKSGGDRHPKIREGVMIGAGAKILGNIEVGRGAKIGAGSVVLQPVPPHTTAAGVPARIVGKPDSDKPSMDM 4.90
